- system: T1, human vascular endothelial growth factor receptor-2 Fc chimera (KDR-Fc) (human, UniProt P35968 20-764)
- T1 construct: range 1-764; purchased from R&D Systems; also called hKDR; human VEGF-R2-Fc; not shown: human IgG1 Fc
- T1 sequence (P35968 20-764 limits assumed, change not shown, form in doubt): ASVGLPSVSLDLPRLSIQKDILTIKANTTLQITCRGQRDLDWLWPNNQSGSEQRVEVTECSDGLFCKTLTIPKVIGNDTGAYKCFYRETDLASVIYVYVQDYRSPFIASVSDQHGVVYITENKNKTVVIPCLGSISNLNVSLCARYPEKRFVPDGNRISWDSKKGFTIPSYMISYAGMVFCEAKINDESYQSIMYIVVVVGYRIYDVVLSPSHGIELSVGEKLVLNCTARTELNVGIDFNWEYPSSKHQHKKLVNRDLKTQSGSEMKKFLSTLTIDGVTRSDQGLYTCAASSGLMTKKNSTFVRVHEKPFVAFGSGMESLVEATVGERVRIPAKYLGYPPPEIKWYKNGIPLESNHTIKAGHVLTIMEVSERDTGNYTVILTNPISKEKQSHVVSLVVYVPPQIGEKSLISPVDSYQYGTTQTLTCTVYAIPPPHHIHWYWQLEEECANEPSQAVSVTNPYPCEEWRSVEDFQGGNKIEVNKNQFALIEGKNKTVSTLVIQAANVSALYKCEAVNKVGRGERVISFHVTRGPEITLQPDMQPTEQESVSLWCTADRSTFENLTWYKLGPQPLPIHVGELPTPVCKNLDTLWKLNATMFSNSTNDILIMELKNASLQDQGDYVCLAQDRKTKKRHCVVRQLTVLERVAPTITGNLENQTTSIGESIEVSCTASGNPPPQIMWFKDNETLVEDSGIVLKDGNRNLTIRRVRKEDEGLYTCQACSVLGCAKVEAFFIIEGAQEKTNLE
- experiment: radioactive equilibrium binding, 1 nM KDR-Fc
Parameter: Binding to 1 nM KDR, %. Scope: all listed entries.
Reply with just the number (in %).

Examples with their reported Binding to 1 nM KDR, % follow.
3H9 PR3 (designed binder, tag left out) EVVAATPTSLLISWRHPHFPTRYYRITYGETGGNSPVQEFTVPLQPPTATISGLKPGVDYTITGYAVTVSQQNHELLTPISINYRT	11
1′DelH6 PR4 (designed binder, tag left out) EVVAATPTSLLISWRHPHFPTRYYRITYGETGGNSPVQEFTVPLQPPTATISGLKPGVDYTITGYAVTVGQYDHELITPISINYRT	6
2G12 PR3 (designed binder, tag left out) VSDVPRDLEVVAATPTSLLISWRHPHFPTRYYRITYGETGGNSPVQEFTVPLQPPTATISGLKPGVDYTITGYAVTSGQNDHALLIPISINYRT	6
4A2 PR3 (designed binder, tag left out) EVVAATPTSLLISWRHPHFPTRYYRITYGETGGNSPVQEFTVPLQPPTATISGLKPGVDYTITGYAVTVAQNAHELMTPISINYRT	8
1′DelD3 PR4 (designed binder, tag left out) EVVAATPTSLLISWRHPHFPTRYYRITYGETGGNSPVQEFTVPLQPPTATISGLKPGVDYTITGYAVTLAQNNHELITPISINYRT	12

Entry 2C9 PR3 (designed binder, tag left out) VSDVPRDLEVVAATPTSLLISWRHPHFPTRYYRITYGETGGNSPVQEFTVPLQPPTATISGLKPGVDYTITGYAVTEAPNGRELRTPISINYRT : reported Binding to 1 nM KDR, % = ?
7

Entry 4B7 PR3 (designed binder, tag left out) EVVAATPTSLLISWRHPHFPTRYYRITYGETGGNSPVQEFTVPLQPPTATISGLKPGVDYTITGYAVTVTQNDHELFTPISINYRT : reported Binding to 1 nM KDR, % = ?
13

Entry 2H10 PR3 (designed binder, tag left out) VSDVPRDLEVVAATPTSLLISWRHPHFPTRYYRITYGETGGNSPVQEFTVPLQPPTATISGLKPGVDYTITGYAVTLAPSARELMTPISINYRT : reported Binding to 1 nM KDR, % = ?
10

Entry 4C4 PR3 (designed binder, tag left out) EVVAATPTSLLISWRHPHFPTRYYRITYGETGGNSPVQEFTVPLQPPTATISGLKPGVDYTITGYAVTVAQDDHELFTPISINYRT : reported Binding to 1 nM KDR, % = ?
10
